// reported pIC50 for each item listed
Tested on: colorectal DLD1 cancer cells
assay_explanation: In vitro cytotoxicity MTS assay, colorectal DLD1
Format: cell-based, human
run_parameters: 72 hours
pIC50: −log10 of the molar value.
readout_type: pIC50

compound_structure_string	value_measured
Cc1cc(Cn2cc(C(=O)C(=O)Nc3ccc(Br)cc3)c3ccccc32)on1	6.19
N#Cc1ccc(Cn2cc(C(=O)C(=O)NCCCCCCOc3ccc(Cl)cc3)c3ccccc32)cc1	6.27
Cc1cc(NC(=O)C(=O)c2cn(Cc3ccsc3)c3ccccc23)sn1	6.23

---

Test system: hepatocellular HEP G2 cancer cells
assay_explanation: In vitro cytotoxicity MTS assay, hepatocellular HEP G2
Format: cell-based, human
run_parameters: 72 hours
// reported IC50 for each item listed

compound_structure_string	unit_text	value_qualifier	IC50
N#Cc1ccc(Cn2cc(C(=O)C(=O)NCCCCCCOc3ccc(Cl)cc3)c3ccccc32)cc1	µM	=	0.713
COc1ccc(NC(=O)C(=O)c2cn(Cc3ccsc3)c3ccccc23)cc1	µM	=	1.32
Cc1cc(NC(=O)C(=O)c2cn(Cc3ccc(C#N)cc3)c3ccc(Br)cc23)sn1	µM	=	3.59
O=C(Nc1cc(-c2ccc(Cl)cc2)no1)C(=O)c1cn(Cc2ccc(Cl)cc2)c2ccccc12	µM	=	3.46
Cc1cc(NC(=O)C(=O)c2cn(Cc3ccco3)c3ccccc23)sn1	µM	=	7.72
Cc1cc(Cn2cc(C(=O)C(=O)Nc3cc(C)ns3)c3ccccc32)on1	µM	=	0.093
O=C(Nc1ccc2ncccc2c1)C(=O)c1cn(Cc2cscn2)c2ccccc12	µM	>	10
O=C(Nc1ccc2ncccc2c1)C(=O)c1cn(Cc2ccco2)c2ccccc12	µM	=	3.98
